Readings of IC50 for the listed molecules
# Assay target: SCD1 (Homo sapiens)
# Construct: host or cells: S. cerevisiae ole1Δ strain (W303 pdr1Δ pdr3Δ background), plasmid pRS316 with TDH3 promoter and CYC1 terminator
# Sequence (O00767 whole entry): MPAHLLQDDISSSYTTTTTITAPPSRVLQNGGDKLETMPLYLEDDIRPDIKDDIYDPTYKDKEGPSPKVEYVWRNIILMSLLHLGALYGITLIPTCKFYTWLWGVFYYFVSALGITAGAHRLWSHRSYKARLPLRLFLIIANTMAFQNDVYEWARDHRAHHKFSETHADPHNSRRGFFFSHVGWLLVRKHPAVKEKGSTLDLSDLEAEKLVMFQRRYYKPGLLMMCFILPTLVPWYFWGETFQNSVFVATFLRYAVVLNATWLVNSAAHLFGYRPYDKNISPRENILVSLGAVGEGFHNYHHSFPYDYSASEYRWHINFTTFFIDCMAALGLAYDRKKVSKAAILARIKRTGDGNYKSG
# Experiment description: Growth inhibition of humanized yeast strain expressing SCD1 as sole desaturase
# Format: cell-based
# Details: humanized yeast strain, 40 h

Known results for molecules:
[
  {
    "Molecule": "O=C(CC1CC1)N1CCN(c2noc(-c3ccc4cnn(C5COC5)c4c3)n2)CC1",
    "IC50": "> 45 µM"
  },
  {
    "Molecule": "COC1(c2nc(-c3ccc4cnn(C(C)C)c4c3)no2)CCN(C(=O)OC(C)(C)C)CC1",
    "IC50": "> 45 µM"
  },
  {
    "Molecule": "CC(C)C(=O)N1CCC(c2noc(-c3cc(F)c4cnn(C5COC5)c4c3)n2)CC1",
    "IC50": "> 45 µM"
  }
]

Task: Need IC50, item COC(=O)N1CCN(c2nc(-c3ccc4cnn(C5CCOC5)c4c3)no2)CC1 (stereo not shown)
Output: 12.9 µM
